Biological target: HLA-A2 (Homo sapiens, UniProt P04439, D140Y/D185E/D98H/E176V/E277Q/G131W/G231S/I119V/I121R/I166T/I218V/L300P/L318F/N151K/N90K/P208A/P217A/Q86G/Q94H/R138H/R169H/T345S)
Construct: made in house
Assay: Competitive peptide-MHC affinity assay (displacement of radiolabeled peptide)
Details: competitive binding, IC50 of displacement of radiolabeled peptide taken as approximation of Kd; 100,000-fold concentration range, each concentration in triplicate; W6/32 capture; read-out: Kd (pMHC affinity for HLA-A2)
Ends that are not written are not given here.
TEST_READOUT: Kd (nM)
Kindly provide the numeric value in nM only, without the unit symbol.

Task: What value of Kd has been reported for the following sequence? RQISQDVKL [RQInp]
Result: 1920
